# target: human DGKα (Homo sapiens, UniProt P23743)
# Construct: TVMV protease cleavage site (C); Hexa-His (C); made in house; host or cells: Sf9 insect cells (baculovirus, Bac-to-Bac)
# Sequence (P23743 with tags, fused parts or gaps): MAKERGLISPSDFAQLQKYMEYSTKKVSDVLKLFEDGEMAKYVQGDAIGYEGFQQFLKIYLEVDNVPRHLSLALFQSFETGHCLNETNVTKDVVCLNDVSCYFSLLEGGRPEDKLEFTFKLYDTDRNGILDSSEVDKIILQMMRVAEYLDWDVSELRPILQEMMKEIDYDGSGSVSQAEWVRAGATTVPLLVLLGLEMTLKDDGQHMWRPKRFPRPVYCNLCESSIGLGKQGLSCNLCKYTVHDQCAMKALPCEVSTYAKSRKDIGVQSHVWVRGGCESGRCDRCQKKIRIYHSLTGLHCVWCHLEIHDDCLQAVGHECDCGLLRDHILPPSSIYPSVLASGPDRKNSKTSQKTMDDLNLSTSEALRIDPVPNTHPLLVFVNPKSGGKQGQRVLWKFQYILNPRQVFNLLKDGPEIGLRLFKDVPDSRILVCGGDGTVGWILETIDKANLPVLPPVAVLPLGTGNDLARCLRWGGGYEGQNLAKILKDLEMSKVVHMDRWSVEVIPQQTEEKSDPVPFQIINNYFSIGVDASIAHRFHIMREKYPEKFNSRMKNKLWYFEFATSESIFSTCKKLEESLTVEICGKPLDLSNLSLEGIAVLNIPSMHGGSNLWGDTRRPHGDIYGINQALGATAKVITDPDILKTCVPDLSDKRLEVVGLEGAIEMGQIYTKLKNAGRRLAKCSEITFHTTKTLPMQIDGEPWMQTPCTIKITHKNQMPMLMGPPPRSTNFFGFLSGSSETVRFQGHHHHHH
# experiment-notes: DGKα LIPGLO assay (extruded liposome substrate), in vitro DGK inhibition
# Format: biochemical
# measurement-conditions: liposome (LIPGLO) assay; read-out: DGKa LIPGLO IC50
Rule: measured IC50 below 500 nM gets Criterion met; anything equal to or greater than 500 nM gets Criterion not met.

Report whether reported IC50 is lower than 500 nM (strictly) for CC[C@@H]1CN(c2cc(=O)n(C)c3ccc(C#N)nc23)[C@@H](C)CN1C(C)c1ccc(C#N)cc1 (single isomer, unassigned) [Example 1346]
Criterion met

Continuing:
Report whether reported IC50 is lower than 500 nM (strictly) for C[C@@H]1CN(c2c(C#N)c(=O)n(C)c3ccc(C#N)nc23)CCN1C(c1ccc(F)cc1)c1cnsc1 (some centres unmarked)
Criterion not met

Then what about the compound C[C@@H]1CN(c2cc(=O)n(C)c3ccc(C#N)nc23)[C@@H](C)CN1C(c1ccc(F)cc1)c1nc(C2CN(C)C2)no1 (single isomer, unassigned) [Example 1298] ?
Criterion not met

----------
# target: human DGKα (Homo sapiens, UniProt P23743)
# Construct: TVMV protease cleavage site (C); Hexa-His (C); made in house; host or cells: Sf9 insect cells (baculovirus, Bac-to-Bac)
# experiment-notes: DGKα LIPGLO assay (extruded liposome substrate), in vitro DGK inhibition
# Type: biochemical
# measurement-conditions: liposome (LIPGLO) assay; read-out: DGKa LIPGLO IC50
Record form. Attribute: pIC50. Fill in for each entry.
Numbers only, as −log10 of the molar value.

Below are worked cases with known answers.
Form field: reported pIC50 of Cn1c(=O)cc(N2CCN(C(c3ccc(F)cc3)c3ccc(F)cc3)CC2CO)c2nc(C#N)ccc21 (racemic) [Example 146]
4.08

Then what about the molecule CCc1ccc(C(c2cccc(F)c2)N2C[C@H](C)N(c3cc(=O)n(C)c4ccc(C#N)nc34)C[C@H]2C)nc1 (single isomer, unassigned) [Example 350] ?
5.72

Then what about the molecule CC(c1nc(C2CC2)cs1)N1C[C@H](C)N(c2cc(=O)n(C)c3ccc(C#N)nc23)C[C@H]1C (single isomer, unassigned) [Example 647] ?
6.66

Then what about the molecule COc1cc(F)ccc1C(c1ccc(F)cc1)N1C[C@@H](C)N(c2c([N+](=O)[O-])c(=O)n(C)c3ccc(C#N)nc23)C[C@@H]1C (stereo in doubt) ?
3.96

Then what about the molecule CC[C@H]1CN(C(C)c2ccc(C3CC3)cc2)[C@H](CC)CN1c1cc(=O)n(C)c2ccc(C#N)nc12 (single isomer, unassigned) [Example 1355] ?
7.21

Continuing:
Form field: reported pIC50 of CC[C@H]1CN(C(C)c2ccc(OC(F)(F)F)cc2)[C@H](COC)CN1c1cc(=O)n(C)c2ccc(C#N)nc12 (single isomer, unassigned) [Example 1408]
7.72

----------
Record form. Attribute: log10 of EC50. Fill in for each entry.
# Test system: Human venous whole blood
# experiment-notes: Human whole blood IFN-γ assay;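 note: blood from healthy donors exposed to compound for 1 h before stimulation with anti-CD3 and anti-CD28 at 1 µg/mL each, IFN-γ quantified in supernatant by AlphaLISA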
# Type: cell-based
# measurement-conditions: Homo sapiens, 24 h, human whole blood, anti-CD3 plus anti-CD28, 24 hours; 3 μM reference compound = 100% activation; read-out: INFg Whole Blood Normalized Agonist EC50
Plainly stated, the numbers are log10 of EC50 given in µM.

Form field: reported log10 of EC50 of Cc1ccc(C(c2ccc(F)cn2)N2C[C@H](C)N(c3c(C#N)c(=O)n(C)c4ccc(C#N)nc34)C[C@H]2C)cc1 (stereo partly shown)
-0.17

Then what about the molecule Cc1ccc(F)cc1CN1CCN(c2c(C#N)c(=O)n(C)c3ccc(C#N)nc23)C[C@H]1C ?
0.67

Then what about the molecule Cc1ccc(C(c2ccc(F)cc2)N2CCN(c3c(C#N)c(=O)n(C)c4ccc(C#N)nc34)C[C@H]2C)nc1 (single isomer, unassigned) ?
-0.28

Then what about the molecule C[C@@H]1CN(c2c(C#N)c(=O)n(C)c3ccc(C#N)nc23)CCN1Cc1ccccc1C(F)(F)F ?
1.30

For each listed entry, give its log10 of EC50.
1. C[C@@H]1CN(c2c(C#N)c(=O)n(C)c3ccc(C#N)nc23)CCN1Cc1c(F)cc(F)cc1F
2. C[C@@H]1CN(c2cc(=O)n(C)c3ccc(C#N)nc23)[C@@H](C)CN1C(c1ccc(F)cc1)c1nc(-c2ccc(F)cc2)no1 (single isomer, unassigned)
3. C[C@@H]1CN(c2c(C#N)c(=O)n(C)c3ccc(C#N)nc23)CCN1Cc1ccc(Cl)c(F)c1

[1.30, -0.68, 0.43]
